- System Tested: T1, 4H584-bA
- T1 chain: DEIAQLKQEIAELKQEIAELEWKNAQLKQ
- Protocol Summary: two-hybrid library CCNG1;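 further: natural log of median RNA to DNA barcode read ratio; higher means stronger binding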
Metric Name: interaction score

# Binder, interaction score
measured = [
    ("DKNAQLKQEIAELEQKIAELKWKNAQLEQ [4H3631-bA]", 0.0123),
    ("DKNAQLEQKIAELKQENAELEWKIAQLKQ [4H3414-bA]", -0.456),
    ("DENAQLKQEIAELKQENAELKWKIAQLEQ [4H1629-bA]", -1.4),
]

I: DENAQLKQKIAELEQEIAELKWENAQLKQ [4H1804-bA]
II: DKNAQLEQEIAELKQKIAELEWENAQLKQ [4H3172-bA]
III: DKNAQLKQEIAELEQKNAELEWKIAQLKQ [4H3638-bA]
IV: DENAQLEQKIAELKQEIAELKWKNAQLEQ [4H1359-bA]
Ask: # rank by interaction score, ascending (min first) Order the labels as requested and list them.
Reply: III, II, I, IV
(III: -1.67, II: -0.867, I: -0.489, IV: -0.341)
